target: UniProt:Q9BW19; experiment: HSET ADP-Glo Assay S - 3 μM ATP; conditions: 5 nM HSET, 70 μg/mL microtubule, 80 min at rt, read-out: COMBINED HSET ADP GLO IC50
Sequence (Q9BW19 whole entry): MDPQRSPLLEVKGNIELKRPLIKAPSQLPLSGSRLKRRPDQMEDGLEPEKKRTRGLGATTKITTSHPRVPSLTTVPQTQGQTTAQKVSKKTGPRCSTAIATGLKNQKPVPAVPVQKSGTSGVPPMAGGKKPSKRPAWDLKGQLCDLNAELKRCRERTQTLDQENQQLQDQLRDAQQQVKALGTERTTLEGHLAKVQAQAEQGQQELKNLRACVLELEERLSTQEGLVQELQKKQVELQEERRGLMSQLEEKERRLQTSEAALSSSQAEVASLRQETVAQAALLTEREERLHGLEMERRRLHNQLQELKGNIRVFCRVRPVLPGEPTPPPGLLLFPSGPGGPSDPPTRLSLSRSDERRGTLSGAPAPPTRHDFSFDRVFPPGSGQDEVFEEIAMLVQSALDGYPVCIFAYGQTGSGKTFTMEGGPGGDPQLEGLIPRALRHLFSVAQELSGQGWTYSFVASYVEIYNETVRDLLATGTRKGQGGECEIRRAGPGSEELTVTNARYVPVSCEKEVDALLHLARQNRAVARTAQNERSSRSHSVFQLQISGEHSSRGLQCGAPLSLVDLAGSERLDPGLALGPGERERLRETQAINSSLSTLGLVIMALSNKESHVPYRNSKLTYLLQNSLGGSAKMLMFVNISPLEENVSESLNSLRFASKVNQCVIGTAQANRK
quantity: IC50 (nM)

These recorded examples may help you get a feel for the data.
{"record.smiles": "Cc1nc(-c2ccc3ccnc(N[C@H]4C[C@@H](C(=O)N(C)c5nc(C)c(C(=O)OC(C)(C)C)s5)C4)c3c2)no1", "test.target": "UniProt:Q9BW19", "numeric.result": 68}
{"record.smiles": "COc1ccc(CCCOC(=O)c2sc(NC(=O)CCNC(=O)c3cccc(-c4noc(C)n4)c3)nc2C)cc1", "test.target": "UniProt:Q9BW19", "numeric.result": 39}
{"record.smiles": "CCCOC(=O)c1sc(NC(=O)[C@@H](O)CNc2nccc3ccc(-c4noc(C)n4)cc23)nc1C", "test.target": "UniProt:Q9BW19", "numeric.result": 2}
{"record.smiles": "Cc1nc(-c2cccc(C(=O)NC3CN(C(=O)N(C)c4nc(C)c(C(=O)OC(C)(C)C)s4)C3)c2)no1", "test.target": "UniProt:Q9BW19", "numeric.result": 52}
{"record.smiles": "Cc1nc(NC(=O)C[C@H](CC#N)NC(=O)c2cccc(-c3cnn(C)c3)c2)sc1C(=O)OC(C)(C)C", "test.target": "UniProt:Q9BW19", "numeric.result": 410}

[P] Cc1nc(-c2ccc3ccnc(N[C@H]4CCN(C(=O)N(C)c5nc(C)c(C(=O)OC(C)(C)C)s5)C4)c3c2)no1
[Q] Cc1nc(-c2ccc3ccnc(N[C@H]4C[C@@](O)(C(=O)Nc5nc(C)c(C(C)(C)C)s5)C4)c3c2)no1
Which of the two items, P and Q , has the greater recorded IC50? Please reply using the label of the selected record.
Q
(Q: 133 nM, P: 88 nM)
